# TARGET UNDER TEST: Metabotropic glutamate receptor 8 (Rattus norvegicus)
# PROTOCOL NOTES: mGluR8 Gi/Go-coupled signaling modulation – cell-based, rat, thallium flux, HTS, primary screen (AID 488969)
# TEST CONDITIONS: HEK293 rat mGluR8, GIRK thallium flux, FluoZin2; at 10 µM; stronger effect = higher value; submaximal glutamate (EC20) added with thallium
Over roughly 110,000 compounds, “z-score” has its median near -0.1; the highest 2% begin near 2. The full list was thinned out, with the highest values kept by preference.
READOUT: z-score
Output spec: single numeric token, no unit.

INPUT: // lookup z-score for OCCCc1nc2n(n1)C(c1ccccc1)C=C(c1ccccc1)N2 (stereo unspecified)
OUTPUT: -0.449

INPUT: // lookup z-score for OCCCc1nc2n(n1)C(c1cccs1)C=C(c1ccccc1)N2 (stereo unspecified)
OUTPUT: 2.68

INPUT: // lookup z-score for `O=C(O)CCCCCNc1nc(=S)[nH]c2ccccc12`
OUTPUT: 0.209

INPUT: // lookup z-score for `COC(=O)Cc1csc(Nc2ccccc2Cl)n1`
OUTPUT: 0.0565

INPUT: // lookup z-score for OCCCc1nc2n(n1)C(c1cccs1)C=C(c1ccc(Br)cc1)N2 (stereo unspecified)
OUTPUT: 5.08

INPUT: // lookup z-score for `COc1ccc(CNC(=O)COC(=O)[C@H](Cc2c[nH]c3ccccc23)NC(=O)c2cccs2)cc1`
OUTPUT: 0.0349

INPUT: // lookup z-score for `O=C(Cc1c[nH]c2ccccc12)NCc1ccc(Cl)cc1`
OUTPUT: 0.348

INPUT: // lookup z-score for `O=C(CCCSc1nc2ccccc2[nH]1)NCc1ccc(Cl)cc1`
OUTPUT: -0.328

INPUT: // lookup z-score for `O=C(O)Cc1csc(Nc2cccc(Cl)c2)n1`
OUTPUT: 0.819

INPUT: // lookup z-score for `O=C(Cc1csc(Nc2nc(=S)[nH]c3ccccc23)n1)NCc1ccccc1Cl`
OUTPUT: 3.83

INPUT: // lookup z-score for OCCCc1nc2n(n1)C(c1ccccc1)C=C(c1ccc(F)cc1)N2 (stereo unspecified)
OUTPUT: -1.33

* * *

# TARGET UNDER TEST: Metabotropic glutamate receptor 8 (Rattus norvegicus)
# PROTOCOL NOTES: mGluR8 Gi/Go-coupled signaling modulation – cell-based, rat, thallium flux, HTS, primary screen (AID 488969)
# TEST CONDITIONS: HEK293 rat mGluR8, GIRK (G protein-gated inwardly rectifying potassium channel) thallium flux, FluoZin2; at 10 µM; stronger effect = higher value; submaximal glutamate (EC20) added with thallium
The full ranking holds about 110,000 compounds; the median of “z-score” is about -0.1, and the highest 2% start at about 2. For the sample, the highest values were picked, then their nearest neighbours and some compounds at random.
Mark Not satisfied for z-score values under -0.04, and Satisfied for everything at or above.

INPUT: Tell me whether z-score is at least -0.04 here: `CCn1cc(/C=N/NS(=O)(=O)c2ccc(C)cc2)c(C)n1`
OUTPUT: Not satisfied

INPUT: Tell me whether z-score is at least -0.04 here: `O=C(NNS(=O)(=O)c1ccc(Cl)cc1)c1sccc1-n1cccc1`
OUTPUT: Satisfied

INPUT: Tell me whether z-score is at least -0.04 here: CC(=O)NCCn1c(SCC(=O)NCC2CCCO2)nc2ccccc2c1=O (stereo unspecified)
OUTPUT: Satisfied

INPUT: Tell me whether z-score is at least -0.04 here: `Cn1nc(C(F)(F)F)c2cc(NC(=O)OCC(C)(C)C)sc21`
OUTPUT: Not satisfied

INPUT: Tell me whether z-score is at least -0.04 here: CC1CCCN(c2ccc(C(=O)OCC(=O)N3c4ccccc4Sc4ccccc43)cc2[N+](=O)[O-])C1 (stereo unspecified)
OUTPUT: Not satisfied

INPUT: Tell me whether z-score is at least -0.04 here: `O=C(C1CCN(S(=O)(=O)c2cccnc2)CC1)N1CCN(C2CCCC2)CC1`
OUTPUT: Not satisfied

INPUT: Tell me whether z-score is at least -0.04 here: OC(CCN1CCOCC1)(c1ccc(Cl)cc1)C1CCCCC1 (stereo unspecified)
OUTPUT: Not satisfied

INPUT: Tell me whether z-score is at least -0.04 here: `Cn1nc(C(F)(F)F)c2cc(NC(=O)OCc3ccc(F)cc3)sc21`
OUTPUT: Satisfied

INPUT: Tell me whether z-score is at least -0.04 here: `O=C(C1CCN(S(=O)(=O)c2cccnc2)CC1)N1CCCCC1`
OUTPUT: Satisfied

INPUT: Tell me whether z-score is at least -0.04 here: `Cc1nc2ccccc2nc1OCC(=O)N1CCN(c2ccccc2)CC1`
OUTPUT: Not satisfied

INPUT: Tell me whether z-score is at least -0.04 here: `COc1ccc(COC(=O)Nc2cc3c(C(F)(F)F)nn(C)c3s2)cc1`
OUTPUT: Not satisfied
